# system-tested: recombinant wild-type SARS-CoV-2 S trimer (ELISA antigen) (SARS-CoV-2 wild-type, UniProt P0DTC2)

| binder | binding result |
| --- | --- |
| P5S-1D8 (antibody, V domains shown) VH: EVQLVESGGGLVQPGRSLRLSCAASGFTFDDYAMYWVRQAPGKGLEWVSGVSWNSGTIGYADSVKGRFIISRDNAKNSLYLQMRSLRTEDTALYYCAKDSATRYYSGSDYTSYGMDVWGQGTTVTVSS VL: QSALTQPASVSGSPGQSITVSCTGTSSDIGDYNYVSWYQQHPGKAPKLMIYDVSNRPSGASNRFSGSKSGNTASLTISGLQAEDEADYYCSSYTSSSTVVFGGGTKVTVL | binds |
| P195-2B9 (antibody, V domains shown) VH: QVQLQESGPGLVKPSETLSLTCTVSGGSSSSHFWSWIRQPPGKGLEWIGYIYYGGNTNYNPSLKSRVTISVDTSKSQFSLKLSSVTAADTAVYYCARHHYYYDSSDFRLKAGYYFDYWGQGTLVAVSS VL: QSVLTQPPSVSGAPGQRVTISCTGSSSNIGAGYDVHWYQQLPGTAPKLLIFDNNDRPSGVPDRFSGSKSDTSASLAITGLQAEDEADYYCQSYDSSLISWVFGGGTKLTLL | binds |
| P5-2B9 (antibody, V domains shown) VH: EVQLVQSGAEVKKPGESLKISCKGSGHSFTSFWIGWVRQMPGKGLEWMGIIYPGDSETRYSPSFQGQVTISVDKSIFTAYLQWSSLKASDSAMYYCARISGKGVGWFDPWGQGTLVTVSS VL: SYVLTQPPSVSVAPGQTARITCGGNNIGSKSVHWYQQKPGQAPVLVIYYDSDRPSGIPERFSGSNSGNTATLTISRVEAGDEADYYCQVWHSSSDHVVFGGGTKLTVL | binds |
